Test summary: Shake-flask logD7.4 n-octanol/PBS
Format: physicochemical
Stated conditions: n-octanol/PBS pH 7.4, shake-flask, room temperature
Value kind: logD at 24 h

> print(dat)
          smiles.representation  endpoint.result
1  COCCOc1cc2ncnc(Cl)c2cc1OCCOC             1.02
